pEC50 values for the compounds below.
- SYSTEM NAME: rat MOR (Rattus norvegicus)
- Sequence (P33535 whole entry): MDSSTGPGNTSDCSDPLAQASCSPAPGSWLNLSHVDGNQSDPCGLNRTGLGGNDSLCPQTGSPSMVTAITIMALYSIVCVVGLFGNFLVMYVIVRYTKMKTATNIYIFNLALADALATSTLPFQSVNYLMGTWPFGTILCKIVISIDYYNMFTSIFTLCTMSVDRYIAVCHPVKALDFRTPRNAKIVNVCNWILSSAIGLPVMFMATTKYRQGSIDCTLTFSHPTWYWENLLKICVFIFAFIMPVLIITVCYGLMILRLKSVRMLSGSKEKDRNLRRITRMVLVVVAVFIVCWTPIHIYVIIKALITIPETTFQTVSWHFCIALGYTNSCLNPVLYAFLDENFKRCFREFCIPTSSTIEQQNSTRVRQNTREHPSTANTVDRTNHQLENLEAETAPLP
- PROCEDURE DETAILS: [35S]-GTPγS functional assay, MOR-expressed CHO cell membranes
- TEST PARAMETERS: read-out: MOR [35S]-GTPγS binding EC50; mean ± SEM, at least three experiments
pEC50: −log10 of the molar value.
ENDPOINT LABEL: pEC50

In [3]: df
Out[3]:
                                 cpd_smiles  test_value
0  N#Cc1cc(C(=O)N[C@@H]2CC[C@@]3(O)[C@H]4Cc5cccc6c5[C@@]3(CCN4CC3CC3)[C@H]2O6)ccn1        6.47
1  O=C(N[C@@H]1CC[C@@]2(O)[C@H]3Cc4cccc5c4[C@@]2(CCN3CC2CC2)[C@H]1O5)c1ccnc(Br)c1        6.54

---

- SYSTEM NAME: mouse DOR (Mus musculus, UniProt P32300)
- Sequence (P32300 whole entry): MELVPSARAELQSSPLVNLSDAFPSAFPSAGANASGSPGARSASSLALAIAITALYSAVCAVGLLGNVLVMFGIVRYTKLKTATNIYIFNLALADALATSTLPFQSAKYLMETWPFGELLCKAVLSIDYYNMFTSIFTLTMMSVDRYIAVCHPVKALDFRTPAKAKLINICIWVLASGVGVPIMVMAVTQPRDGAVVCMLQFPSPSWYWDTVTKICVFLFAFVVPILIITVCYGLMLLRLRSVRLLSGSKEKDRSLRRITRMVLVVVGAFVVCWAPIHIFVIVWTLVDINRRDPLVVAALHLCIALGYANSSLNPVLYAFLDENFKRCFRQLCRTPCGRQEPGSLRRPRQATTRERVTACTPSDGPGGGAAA
- PROCEDURE DETAILS: [35S]-GTPγS functional assay, DOR-expressed CHO cell membranes
- TEST PARAMETERS: read-out: DOR [35S]-GTPγS binding EC50; mean ± SEM, at least three experiments
pEC50: −log10 of the molar value.
pEC50 values for the molecules below.
ENDPOINT LABEL: pEC50

>>> df
                                   molecule                               system_name  test_value
0  N#Cc1cc(C(=O)N[C@@H]2CC[C@@]3(O)[C@H]4Cc5cccc6c5[C@@]3(CCN4CC3CC3)[C@H]2O6)ccn1 [Compound 6c]  mouse DOR (Mus musculus, UniProt P32300)        5.73
1  O=C(N[C@@H]1CC[C@@]2(O)[C@H]3Cc4cccc5c4[C@@]2(CCN3CC2CC2)[C@H]1O5)c1ccnc(Br)c1 [Compound 6b]  mouse DOR (Mus musculus, UniProt P32300)        5.57
